Value source: paper PMC3602154

experimentalSystem: A4B2 (Rattus norvegicus, UniProt P09483+P12390)
Sequence (P09483 31-630): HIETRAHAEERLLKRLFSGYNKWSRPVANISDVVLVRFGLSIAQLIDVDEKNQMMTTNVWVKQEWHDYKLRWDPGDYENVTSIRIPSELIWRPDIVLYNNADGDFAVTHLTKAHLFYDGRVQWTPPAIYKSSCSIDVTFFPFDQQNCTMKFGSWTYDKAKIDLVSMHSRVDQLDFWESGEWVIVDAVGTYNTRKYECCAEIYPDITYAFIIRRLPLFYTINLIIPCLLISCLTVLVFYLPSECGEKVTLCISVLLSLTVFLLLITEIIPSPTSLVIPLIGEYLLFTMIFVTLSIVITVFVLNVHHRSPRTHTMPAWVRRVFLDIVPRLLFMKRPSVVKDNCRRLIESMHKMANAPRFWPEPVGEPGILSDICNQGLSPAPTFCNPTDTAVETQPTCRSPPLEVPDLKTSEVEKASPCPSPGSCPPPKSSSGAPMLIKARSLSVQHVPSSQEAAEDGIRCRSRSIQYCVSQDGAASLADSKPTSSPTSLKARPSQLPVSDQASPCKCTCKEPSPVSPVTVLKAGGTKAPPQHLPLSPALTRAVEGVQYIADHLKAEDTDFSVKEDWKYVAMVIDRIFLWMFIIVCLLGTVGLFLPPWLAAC
Sequence (P12390 25-500): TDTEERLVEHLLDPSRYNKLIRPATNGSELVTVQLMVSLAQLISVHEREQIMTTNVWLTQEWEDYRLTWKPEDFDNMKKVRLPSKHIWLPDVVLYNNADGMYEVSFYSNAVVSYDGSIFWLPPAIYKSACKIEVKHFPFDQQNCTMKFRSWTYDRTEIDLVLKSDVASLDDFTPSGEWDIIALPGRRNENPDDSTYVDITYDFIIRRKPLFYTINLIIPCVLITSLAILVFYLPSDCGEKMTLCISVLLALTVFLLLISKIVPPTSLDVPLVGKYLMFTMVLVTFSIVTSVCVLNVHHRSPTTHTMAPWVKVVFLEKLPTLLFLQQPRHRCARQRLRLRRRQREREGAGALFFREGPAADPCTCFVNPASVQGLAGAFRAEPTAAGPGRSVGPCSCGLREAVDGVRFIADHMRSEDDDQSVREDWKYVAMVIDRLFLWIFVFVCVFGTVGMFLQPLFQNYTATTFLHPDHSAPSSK
assayRemarks: PDSP radioligand binding, nicotinic receptor α4 ß2
pKi: −log10 of the molar value.
measurementKind: pKi

Q) Would you kindly share the measured pKi for `COc1ccc(C2(N3CCCCC3)CCCCC2)cc1` ?
A) < 5.00

Q) Okay, and CCNC1(c2cccc(OC)c2)CCCCC1=O (racemic) ?
A) < 5.00

Q) Okay, and `COc1cccc(C2(N3CCCCC3)CCCCC2)c1` ?
A) < 5.00

----------
experimentalSystem: Alpha1B (Homo sapiens, UniProt P35368)
Sequence (P35368 1-520): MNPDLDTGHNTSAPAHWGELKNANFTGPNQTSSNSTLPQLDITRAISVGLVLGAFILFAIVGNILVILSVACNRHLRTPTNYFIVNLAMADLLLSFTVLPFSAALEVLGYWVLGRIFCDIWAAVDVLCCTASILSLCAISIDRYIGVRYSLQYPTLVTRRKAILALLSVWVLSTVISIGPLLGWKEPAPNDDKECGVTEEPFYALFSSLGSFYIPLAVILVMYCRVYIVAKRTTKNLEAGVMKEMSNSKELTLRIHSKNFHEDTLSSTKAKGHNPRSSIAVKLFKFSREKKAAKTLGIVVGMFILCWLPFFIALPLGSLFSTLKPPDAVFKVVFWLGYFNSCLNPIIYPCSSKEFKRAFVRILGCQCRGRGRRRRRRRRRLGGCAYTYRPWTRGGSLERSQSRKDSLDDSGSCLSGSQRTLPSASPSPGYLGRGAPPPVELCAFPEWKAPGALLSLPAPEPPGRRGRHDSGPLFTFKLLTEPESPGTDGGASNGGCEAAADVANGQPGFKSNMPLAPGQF
measurementKind: Ki

Q) Would you kindly share the measured Ki for CCNC1(c2cccc(OC)c2)CCCCC1=O (racemic) [Methoxetamine] ?
A) > 10 µM

Q) Okay, and COc1ccc(C2(N3CCCCC3)CCCCC2)cc1 [4-MeO-PCP] ?
A) > 10 µM

Q) Okay, and COc1cccc(C2(N3CCCCC3)CCCCC2)c1 [3-MeO-PCP] ?
A) > 10 µM

----------
So I've got a bunch of compounds here, and I need their Ki values.
experimentalSystem: 5-ht5a (Homo sapiens)
Sequence (P47898 whole entry, species assumed): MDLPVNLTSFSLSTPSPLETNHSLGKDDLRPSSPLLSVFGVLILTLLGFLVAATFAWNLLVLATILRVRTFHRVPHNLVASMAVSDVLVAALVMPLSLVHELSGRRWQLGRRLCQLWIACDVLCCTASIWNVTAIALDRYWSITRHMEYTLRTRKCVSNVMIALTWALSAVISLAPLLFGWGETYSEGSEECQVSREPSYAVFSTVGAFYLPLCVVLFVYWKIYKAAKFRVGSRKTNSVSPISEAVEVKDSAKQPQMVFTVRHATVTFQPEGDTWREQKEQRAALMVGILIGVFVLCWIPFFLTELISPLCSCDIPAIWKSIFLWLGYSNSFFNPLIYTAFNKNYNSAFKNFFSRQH

Q) Kindly state the measured Ki obtained for CCNC1(c2cccc(OC)c2)CCCCC1=O (racemic) with 5-ht5a (Homo sapiens).
A) > 10 µM

Q) Okay, and `COc1cccc(C2(N3CCCCC3)CCCCC2)c1` ?
A) > 10 µM

Q) Okay, and `COc1ccc(C2(N3CCCCC3)CCCCC2)cc1` ?
A) > 10 µM

----------
Lab note: Ki readings collected with CB2 (Homo sapiens, UniProt P34972) for the following compounds.
Sequence (P34972 whole entry, species assumed): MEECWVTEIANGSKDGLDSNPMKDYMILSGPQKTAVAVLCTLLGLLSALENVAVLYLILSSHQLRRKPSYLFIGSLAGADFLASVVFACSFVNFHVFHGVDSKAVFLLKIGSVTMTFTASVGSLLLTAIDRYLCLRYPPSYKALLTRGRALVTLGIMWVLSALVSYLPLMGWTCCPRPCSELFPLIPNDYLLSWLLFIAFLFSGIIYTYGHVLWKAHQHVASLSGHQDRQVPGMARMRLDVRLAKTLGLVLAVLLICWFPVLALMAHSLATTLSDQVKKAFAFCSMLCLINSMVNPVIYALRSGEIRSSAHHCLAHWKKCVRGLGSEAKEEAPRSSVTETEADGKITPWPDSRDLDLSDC

Q) Would you kindly share the measured Ki for CCNC1(c2cccc(OC)c2)CCCCC1=O (racemic) ?
A) > 10 µM

Q) Okay, and `COc1ccc(C2(N3CCCCC3)CCCCC2)cc1` ?
A) > 10 µM

Q) Okay, and `COc1cccc(C2(N3CCCCC3)CCCCC2)c1` ?
A) > 10 µM

----------
Lab note: Ki readings collected with H3 (Homo sapiens, UniProt Q9Y5N1) for the following compounds.
Sequence (Q9Y5N1 whole entry): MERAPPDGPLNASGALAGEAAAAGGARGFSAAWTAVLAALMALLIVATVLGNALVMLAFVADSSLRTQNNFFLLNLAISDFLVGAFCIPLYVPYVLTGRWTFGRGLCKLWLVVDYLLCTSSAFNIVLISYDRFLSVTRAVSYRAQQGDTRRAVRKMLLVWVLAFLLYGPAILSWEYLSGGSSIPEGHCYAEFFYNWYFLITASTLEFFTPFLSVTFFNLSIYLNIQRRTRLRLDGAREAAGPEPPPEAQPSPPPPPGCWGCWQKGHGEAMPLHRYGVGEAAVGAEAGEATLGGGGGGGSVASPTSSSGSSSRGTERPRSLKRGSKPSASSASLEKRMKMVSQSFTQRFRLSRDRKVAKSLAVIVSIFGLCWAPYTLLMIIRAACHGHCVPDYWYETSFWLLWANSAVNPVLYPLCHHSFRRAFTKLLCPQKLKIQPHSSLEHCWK

Q) Would you kindly share the measured Ki for COc1ccc(C2(N3CCCCC3)CCCCC2)cc1 [4-MeO-PCP] ?
A) > 10 µM

Q) Okay, and COc1cccc(C2(N3CCCCC3)CCCCC2)c1 [3-MeO-PCP] ?
A) > 10 µM

Q) Okay, and CCNC1(c2cccc(OC)c2)CCCCC1=O (racemic) [Methoxetamine] ?
A) > 10 µM
